# credit: patent US20190315823A1

Tested on: LPS-stimulated human peripheral blood mononuclear cells (IL1-β)
Type: cell-based
Conditions: Table 12; cells stimulated with 10 ng/ml LPS; LPS alone 1313 (HH2 derivatives), 1927 (1018 derivatives), 2455 (1002 and hybrid peptides) pg/ml
Ends that are not written are not given here.
measuredQuantity: IL1β Production (pg/mL)
Write the value in pg/mL as a bare number.

Example substances with recorded IL1β Production:
1002-G2: single substituted 1002 peptide (VGRWLIVWRIRK-NH2) [Peptide 1002-G2] = 127
HH2-V10: single substituted HH2 peptide (VQLRIRVAVVRA-NH2) = 1390
1018-V11: single substituted 1018 peptide (VRLIVAVRIWVR-NH2) [Peptide 1018-V11] = 1240

// moving on: another record for IL1β Production
Item under review: 1002-G11: single substituted 1002 peptide (VQRWLIVWRIGK-NH2) [Peptide 1002-G11] . Reported IL1β Production?
127
